# Test system: fibroblasts (NIH3T3)
# assayInfo: Cytotoxicity of CPT encapsulated SMS self-assembled fibers, NIH3T3
# Type: cell-based
# assayConditions: Mus musculus; NIH3T3 fibroblasts in culture; unit inferred
recordedMetric: IC50 (nM)
Output spec: scalar in nM, unitless text.

Fill in the recorded IC50 for this molecule, with fibroblasts (NIH3T3) as test system: "CC[C@@]1(O)C(=O)OCc2c1cc1n(c2=O)Cc2cc3ccccc3nc2-1"
3.9
